Parameter MIC: see the listing below.
system: Aspergillus flavus; assay: Antifungal activity against Aspergillus flavus assessed as fungal growth inhibition by broth microdilution method; type: functional
// note: answer is a bare numeric in µg/mL

Exercise: What value of MIC has been recorded for this entry: OC(Cn1cncn1)(Cn1cncn1)c1ccc(F)cc1F [FLUCONAZOLE]
Solution: 1.56

Exercise: Entry under review: CCO/C=N/C1=C(C#N)C(c2cccc(OC)c2OC)c2c(n(C)c(=O)n(C)c2=O)O1 (stereo unspecified) . Reported MIC?
Solution: 3.12

Exercise: Quick one: MIC for CCO/C=N/C1=C(C#N)C(c2ccccc2F)c2c(n(C)c(=O)n(C)c2=O)O1 (stereo unspecified) ?
Solution: 6.25

Exercise: Bench note: what MIC did CCO/C=N/C1=C(C#N)C(c2ccc(F)cc2)c2c(n(C)c(=O)n(C)c2=O)O1 (stereo unspecified) show?
Solution: 3.12

Exercise: Could you tell me which MIC is on file for CCO/C=N/C1=C(C#N)C(c2cc(OC)ccc2OC)c2c(n(C)c(=O)n(C)c2=O)O1 (stereo unspecified) ?
Solution: 3.12

Exercise: I would be grateful if you could share the reported MIC for CCO/C=N/C1=C(C#N)C(c2ccc(Cl)cc2)c2c(n(C)c(=O)n(C)c2=O)O1 (stereo unspecified) .
Solution: 3.12

---

system: A549; assay: Anticancer activity against human A549 cells assessed as reduction in cell viability incubated for 24 hrs by MTT assay; type: functional, cell-based; conditions: A549, 24 h
Entries and their measured pIC50 follow.
Just the number, please; pIC50 means minus log10 of the concentration in mol/L.

Exercise: Which value of pIC50 has been reported for CCOC(=O)C1=C(C)Oc2nc(C)n(Cc3cn(-c4ccc([N+](=O)[O-])cc4)nn3)c(=O)c2C1c1ccccc1 (stereo unspecified) in the records?
Solution: 6.16

---

test: Cytotoxicity against African green monkey Vero cells assessed as reduction in cell viability by MTT assay; format: toxicity, cell-based; settings: African green monkey (Chlorocebus sabaeus)
Assay Metric: IC50 (µg/mL)
Write the answer as a number in µg/mL, unit excluded.

Exercise: Item under review: COc1ccc(N2C(=O)C3C(c4ccccc4)C(C#N)=C(N)OC3N(c3ccc(OC)cc3)C2=S)cc1 (stereo unspecified) . Reported IC50?
Solution: 138

---

species on record: Capra hircus; test: Inhibition of goat lens AR at 100 uM incubated for 10 mins in presence of NADPH by spectroscopic analysis
Assay Metric: inhibition

Below are worked cases with known answers.
INSERT INTO measurements (compound, obs_value) VALUES
  ('O=c1c(O)c(-c2ccc(O)c(O)c2)oc2cc(O)cc(O)c12', '92%'),
  ('O=c1[nH]c2c(c(=O)[nH]1)Oc1c(c(=O)oc3ccccc13)C2c1ccc([N+](=O)[O-])cc1 (configuration not stated)', '39%'),
  ('Cc1nn(-c2ccccc2)c(Cl)c1C1c2[nH]c(=O)[nH]c(=O)c2Oc2c1c(=O)oc1ccccc21 (configuration not stated)', '60%');

Exercise: Report inhibition for O=c1[nH]c2c(c(=O)[nH]1)Oc1c(c(=O)oc3ccccc13)C2c1ccccc1Cl (configuration not stated) please.
Solution: 46%

Exercise: Report inhibition for O=c1[nH]c2c(c(=O)[nH]1)Oc1c(c(=O)oc3ccccc13)C2c1cccc([N+](=O)[O-])c1 (configuration not stated) please.
Solution: 59%

Exercise: Would you mind telling me what inhibition value was observed for O=c1[nH]c2c(c(=O)[nH]1)Oc1c(c(=O)oc3ccccc13)C2c1ccc(Cl)cc1 (configuration not stated) ?
Solution: 47%

Exercise: Look at this compound and give its reported inhibition. COc1ccc(C2c3[nH]c(=O)[nH]c(=O)c3Oc3c2c(=O)oc2ccccc32)cc1 (configuration not stated)
Solution: 44%

---

system: Raoultella planticola; test: Antibiofilm activity against Raoultella planticola MTCC 530 assessed as inhibition of biofilm incubated for 24 hrs by crystal violet staining based spectrophotometry; assay type: functional, organism-based; conditions: Klebsiella planticola, MTCC 530, 24 h
Assay Metric: pIC50
Interpret pIC50 as the negative base-10 log of the concentration measured in mol/L.

Exercise: pIC50 lookup needed for COc1ccc(Nc2ncnc3c2C(c2ccc(OC)cc2)c2c(cc(C)oc2=O)O3)cc1 (stereo unspecified) , thanks.
Solution: 5.60

---

test system: MCF7; experiment: Antiproliferative activity against human MCF7 cells assessed as reduction in cell proliferation; type: functional, cell-based
Recorded IC50 for the following compounds
The reply should be a number in µM, with the unit left off.

INSERT INTO measurements (compound, obs_value) VALUES
  ('Cc1ccc(S(=O)(=O)Nn2cnc3c(c2=N)C(c2cn(-c4ccccc4)nc2-c2ccccc2)c2c(ccc4ccccc24)O3)cc1 (centres undefined)', 9.29),
  ('c1ccc(-c2nn(-c3ccccc3)cc2C2c3c(ccc4ccccc34)Oc3ncn4ncnc4c32)cc1 (centres undefined)', 10),
  ('NNc1ncnc2c1C(c1cn(-c3ccccc3)nc1-c1ccccc1)c1c(ccc3ccccc13)O2 (centres undefined)', 9.89);

Let us move to another entry and its IC50.
Exercise: So what does the record say about IC50 for N=c1c2c(ncn1-c1ccccc1O)Oc1ccc3ccccc3c1C2c1cn(-c2ccccc2)nc1-c1ccccc1 (centres undefined) ?
Solution: 2.67

---

system: A549; test: Anticancer activity against human A549 cells assessed as reduction in cell viability incubated for 24 hrs by MTT assay; format: functional, cell-based; details: A549, 24 h
Assay Metric: pIC50
Answer as the number alone; pIC50 is minus log10 of concentration in mol/L.

These recorded examples may help you get a feel for the data.
INSERT INTO assay_data (compound, obs_value) VALUES
  ('CCOC(=O)C1=C(C)Oc2nc(C)n(Cc3cn(-c4ccc(C(C)=O)cc4)nn3)c(=O)c2C1c1ccccc1 (stereo not given)', 5.17),
  ('CCOC(=O)C1=C(C)Oc2nc(C)n(Cc3cn(-c4ccc(OC)cc4[N+](=O)[O-])nn3)c(=O)c2C1c1ccccc1 (stereo not given)', 5.24),
  ('CCOC(=O)C1=C(C)Oc2nc(C)n(Cc3cn(-c4ccc([N+](=O)[O-])cc4)nn3)c(=O)c2C1c1cccs1 (stereo not given)', 5.73),
  ('CCCCCCCCn1cc(Cn2c(C)nc3c(c2=O)C(c2ccccc2)C(C(=O)OCC)=C(C)O3)nn1 (stereo not given)', 5.44);

Then there is this compound:
Exercise: Suppose we examine the compound `COc1cccc2c1C(=O)c1c(O)c3c(c(O)c1C2=O)C[C@@](O)(C(=O)CO)C[C@@H]3O[C@H]1C[C@H](N)[C@H](O)[C@H](C)O1` ; what pIC50 value has been reported?
Solution: 6.85
